The entries below come with measured growth inhibition values attached.
# METHOD SUMMARY: NCI Yeast Anticancer Drug Screen. Data for the bub3 strain (AID 167)
# EXPERIMENTAL CONTEXT: S. cerevisiae bub3 mutant strain, at 3.7 µM, stronger effect = higher value
Compounds without any hit were thinned out: in the full panel of roughly 79,000, 15% have a hit.
ASSAY ENDPOINT: growth inhibition (%)

MOLECULE | READOUT NUMBER
COc1ccc(/C=C(\NC(=O)c2ccccc2)C(=O)NN(C)c2ccnc3cc(Cl)ccc23)cc1OC | -4
Cc1onc(-c2ccccc2Cl)c1C1=N/C(=C/c2cc(Cl)cc(Cl)c2O)C(=O)O1 | -40
Clc1nc(C(Cl)Cl)nc2sc3c(c12)CCCC3 | 3
CCc1[nH]nc(C(N)=O)c1N=NN(C)C | -5
Nc1ccc(CCl)cc1Cc1c(O)ccc2ccccc12 | -2
C(=N/NC1=NCCN1)/c1c2ccccc2c(/C=N\NC2=NCCN2)c2ccccc12 | -21
CCN(CC)CC(O)c1cc(-c2ccc(Cl)cc2)nc2c(-c3ccccc3)cccc12 (configuration not stated) | -5
COc1cc(N)ccc1Nc1c2ccccc2nc2ccccc12 | 15
COc1ccc(SCc2cc(OC)ccc2OC)cc1 | 13
CCCCCC#CCOC(=O)C(=[N+]=[N-])P(=O)(c1ccccc1)c1ccccc1 | 0
COc1cc2c(cc1C[N+](C)(C)CSc1ccccc1)-c1ccccc1CC2 | -4
O=C1CC(=O)N(C2CCCCC2)C(=O)N1c1ccccc1S(=O)(=O)Oc1ccccc1 | 0
Oc1ccc(C=Nc2ccccc2O)cc1 | 82
O=C1C=CC(=O)N1c1ccc2c(c1)OCO2 | 90
CCOC(=O)c1csc(Br)n1 | -4
CCNc1ccc2c(c1)C(=O)N(OS(C)(=O)=O)C2=O | -2
COc1ccc(S(=O)(=O)N/N=C\c2cc([N+](=O)[O-])cc(I)c2O)c(OC)c1OC | -15
CC(=O)CC(=O)/C=C/c1cccs1 | -10
CCCCCC(=O)c1ccc(O)cc1O | 14
Cc1ccc(S(=O)(=O)Nc2ccc3c(c2)C(O)c2ccccc2-3)cc1 (configuration not stated) | 0
ClCCn1c(CCl)nc2ccc(Cl)cc21 | -25
COc1ccc(/C(C#N)=C/c2ccc(OC)c(OC)c2)cc1 | -3
O=S(=O)(c1cc(Cl)ccc1O)c1cc(Cl)ccc1O | 91
Cc1ccc2occ/c(=N\Nc3ccccc3)c2c1 | -4
Cn1c2nc3ccccc3c-2nc2ccccc21 | 22
CCCCCCCCCCCc1nc(N)n[nH]1 | -2
CC1C(C#N)(C#N)C(C#N)=C(N)C1(Cl)[N+](=O)[O-] (configuration not stated) | 12
N#Cc1sc2c(c1OC(=O)c1ccco1)c(=O)n(-c1ccccc1)c(=S)n2-c1ccccc1 | -4
COCCCN(Cc1cc(OC)c(OC)c(OC)c1)C(=S)Nc1cccc(Cl)c1 | 0
CC1(C)C(C=O)=CCC1CC(N)=O (configuration not stated) | -7
O=C(O)c1cccc2cccc(-c3c4ccc(=O)cc-4oc4cc(O)ccc34)c12 | 69
CN(CC(=O)O)c1ccc(/C=C/c2ccnc3ccccc23)cc1 | -4
O=C(N/N=C\c1c(Cl)cccc1Cl)N/N=C/c1c(Cl)cccc1Cl | 11
CC(=O)[C@]1(O)Cc2c(O)c3c(c(O)c2[C@@H](OC2CC(N)C(O)C(C)O2)C1)C(=O)c1c(OCc2ccccc2)cccc1C3=O (some centres not stated) | 1
OB(O)c1ccccc1C#Cc1ccccc1B(O)O | -8
COc1cc(/C=C/c2sc3ccccc3[n+]2C)ccc1N(C)C | 1
CCCCCCCCCCCCCC(=O)OC(C)CCC1CCCO1 (configuration not stated) | -1
CCCCCCCCN1C(=O)c2ccccc2C1=O | 4
O=[N+]([O-])/C(C(Cl)=C(Cl)Cl)=C1/OCCS1 | 27
NP1(Oc2ccc(F)cc2)=NP(N)(Oc2ccc(F)cc2)=NP(Oc2ccc(F)cc2)(Oc2ccc(F)cc2)=N1 (configuration not stated) | -1
CCC(c1ccc(O)cc1)C(CC)c1ccc(OCCN)cc1 (configuration not stated) | -3
CCc1nc(N)nc(N)c1-c1ccc(NCCCCCCN)c([N+](=O)[O-])c1 | -4
OCCN(CCO)c1ccc2c(c1)Cc1ccccc1-2 | -8
O=C1C=CC(=O)N1c1ccc(N2C(=O)C=CC2=O)cc1 | 96
CCn1ncc(N=O)c1N | 9
Nc1cc(S(N)(=O)=O)ccc1SSc1ccc(S(N)(=O)=O)cc1N | 3
CCN(CC)CCNC(=O)c1nn(-c2ccc(Cl)cc2)c2c1CCc1cc(OC)ccc1-2 | 9

Numbers sourced from PubChem BioAssay (NCI).
